- Assayed target: tyrosine kinase A (TrkA) (Mus musculus, UniProt Q3UFB7)
- Construct: phosphorylation of tyrosine kinase A in cultured hippocampal neuronal cell line HT22; endogenous in cells; host or cells: HT-22 hippocampal neuronal cell line
- Sequence (Q3UFB7 34-799): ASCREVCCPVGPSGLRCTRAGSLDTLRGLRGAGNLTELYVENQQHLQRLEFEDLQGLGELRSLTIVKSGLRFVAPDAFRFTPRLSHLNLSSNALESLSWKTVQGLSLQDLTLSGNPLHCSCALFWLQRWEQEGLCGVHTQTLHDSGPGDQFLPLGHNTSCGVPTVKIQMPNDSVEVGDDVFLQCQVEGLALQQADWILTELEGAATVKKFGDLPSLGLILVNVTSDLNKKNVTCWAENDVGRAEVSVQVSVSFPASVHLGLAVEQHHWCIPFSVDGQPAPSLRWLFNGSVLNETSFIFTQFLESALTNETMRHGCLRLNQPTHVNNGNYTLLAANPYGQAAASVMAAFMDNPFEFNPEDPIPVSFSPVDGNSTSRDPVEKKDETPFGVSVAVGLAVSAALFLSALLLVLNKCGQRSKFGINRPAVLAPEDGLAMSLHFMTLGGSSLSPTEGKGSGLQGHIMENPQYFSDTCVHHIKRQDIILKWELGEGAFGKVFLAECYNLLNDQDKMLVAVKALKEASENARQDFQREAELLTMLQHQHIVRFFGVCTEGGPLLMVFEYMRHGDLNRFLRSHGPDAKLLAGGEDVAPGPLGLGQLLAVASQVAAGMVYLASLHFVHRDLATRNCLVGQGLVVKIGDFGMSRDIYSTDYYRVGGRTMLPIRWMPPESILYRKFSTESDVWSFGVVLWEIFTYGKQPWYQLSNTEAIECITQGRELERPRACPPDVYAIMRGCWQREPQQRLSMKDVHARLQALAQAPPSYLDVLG
- Assay summary: Tyrosine kinase A phosphorylation in HT-22 cells (Western blot)
- Type: cell-based
- Condition summary: first minute of exposure
Square brackets hold non-standard residues; d marks the D form. Peptide text beside a SMILES is read from it. Ahx = NCCCCCC(=O)O
Measured quantity: level of phosphorylated tyrosine kinase A

Molecule: NCCCCCC(=O)NCC(=O)N[C@@H](CCCCN)C(N)=O [GK-5, N-(6-aminocaproyl)-glycyl-lysine amide] (H-[Ahx]-Gly-Lys-NH2)
Result: increased

Molecule: CC(=O)N[C@@H](CCCCN)C(=O)N[C@@H](CCC(=O)O)C(N)=O [GK-3, N-acetyl-lysyl-glutamic acid amide] (Ac-Lys-Glu-NH2)
Result: increased

Molecule: NCCCC[C@H](NC(=O)[C@H](CCC(=O)O)NC(=O)CCC(=O)O)C(=O)NCCCCCCNC(=O)[C@H](CCCCN)NC(=O)[C@H](CCC(=O)O)NC(=O)CCC(=O)O [GK-2]
Result: increased
